Values were extracted from paper PMC9053626.

- Test system: 4T1 cells
- experiment_notes: MTT cytotoxicity assay
- Type: cell-based, murine
- conditions_used: Mus musculus, 4T1, 72 h

[
  {
    "compound": "C[C@H]1[C@@H](O)O[C@@H]2O[C@@]3(C)CC[C@H]4[C@H](C)CC[C@@H]1[C@@]24OO3 [DHA-Sol, Dihydroartemisinin]",
    "target": "4T1 cells",
    "IC50 (nM)": 620
  }
]
